# assay_info: qHTS for identification of novel therapeutic agents for treatment of microphthalmiaassociated transcription factor (MiT) renal cell carcinoma (RCC) (AID 1963991);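 note: curves scaled with 100% = DMSO viability and 0% = empty wells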
# condition_notes: TFE3-RCC UOK109 viability, CellTiter-Glo, 48 h; measured here: UOK109 Z-AUC; stronger effect = lower value
Records with an inconclusive call do not appear.
value_type: z-score

{"compound": "CC1Cc2ccccc2N1NC(=O)c1ccc(Cl)c(S(N)(=O)=O)c1 (centres undefined)", "observed_measurement": 0.928}
{"compound": "CC(C)c1nc(CN(C)C(=O)N[C@H](C(=O)N[C@@H](Cc2ccccc2)C[C@H](O)[C@H](Cc2ccccc2)NC(=O)OCc2cncs2)C(C)C)cs1", "observed_measurement": -0.114}
{"compound": "COc1cc(OC)c(C(=O)CCCN2CCCC2)c(OC)c1", "observed_measurement": 1.14}
{"compound": "COCCCOc1ccnc(CS(=O)c2nc3ccccc3[nH]2)c1C (centres undefined)", "observed_measurement": 0.673}
{"compound": "CC(C)[C@H](N)C(=O)OCCOCn1cnc2c(=O)[nH]c(N)nc21", "observed_measurement": 0.0968}
{"compound": "C[Se]CCC(N)C(=O)O (centres undefined)", "observed_measurement": 1.47}
{"compound": "CC(C)c1ccc2oc3nc(N)c(C(=O)O)cc3c(=O)c2c1", "observed_measurement": 0.102}
{"compound": "COC(=O)N[C@H](C(=O)N[C@@H](Cc1ccccc1)[C@@H](O)CN(Cc1ccc(-c2ccccn2)cc1)NC(=O)[C@@H](NC(=O)OC)C(C)(C)C)C(C)(C)C", "observed_measurement": 0.351}
{"compound": "CC1=C(C)C(=O)C(C(CCCCCC(=O)O)c2ccccc2)=C(C)C1=O (centres undefined)", "observed_measurement": 0.248}

* * *

# assay_info: Quantitative High-Throughput drug screen in 47 multiple myeloma cell lines against the NCATS MIPE library collection: KMM1_JCRB cell viability assay (AID 1918960); note: nearly all actives have a fitted effect of over 30% in size
# condition_notes: KMM1 myeloma viability, CellTiter-Glo ATP luminescence, 48 h; series mostly up to 45.8 µM
Results filed as inconclusive are left out. Calls of active or inactive are those of the source. Calls come from the whole dose curve; as a rule, active = well fitted cell-killing curve with a large enough effect; inconclusive = small, poorly fitted or top-dose-only effect, or effect the other way; inactive = no such curve, though single readings can be large or run the other way.
Labels: true (1) = active, false (0) = inactive

{"compound": "COc1c(O)cc2c(c1O)[C@@H]1O[C@H](CO)[C@@H](O)[C@H](O)[C@H]1OC2=O", "assigned_label": "false (0)"}
{"compound": "Clc1ccc2c(N3CCN(CCCN4CCN(c5ccnc6cc(Cl)ccc56)CC4)CC3)ccnc2c1", "assigned_label": "false (0)"}
{"compound": "CCOC(=O)C1=C(O)C(=O)N(Cc2ccccc2)C1", "assigned_label": "false (0)"}
{"compound": "COCCCN1CCC(NC(=O)c2cc(Cl)c(N)c3c2OCC3)CC1", "assigned_label": "true (1)"}
{"compound": "Cc1cc(C2CCCCC2)n(O)c(=O)c1", "assigned_label": "true (1)"}
{"compound": "O=c1c(O)c(-c2cc(O)c(O)c(O)c2)oc2cc(O)cc(O)c12", "assigned_label": "false (0)"}
{"compound": "COC1=C(OC)C(=O)C(CCCCCCCCCCO)=C(C)C1=O", "assigned_label": "true (1)"}
{"compound": "CC(=O)NC[C@H]1CN(c2ccc(N3CCOCC3)c(F)c2)C(=O)O1", "assigned_label": "false (0)"}
{"compound": "O=c1c(O)c(-c2ccc(O)cc2O)oc2cc(O)cc(O)c12", "assigned_label": "false (0)"}
{"compound": "Cc1c(C(=O)NN2CCCCC2)nn(-c2ccc(Cl)cc2Cl)c1-c1ccc(Cl)cc1", "assigned_label": "true (1)"}
{"compound": "Cc1ccc(S(=O)(=O)NC(=O)NN2CC3CCCC3C2)cc1 (stereo unspecified)", "assigned_label": "true (1)"}

* * *

# assay_info: Quantitative High-Throughput drug screen in 47 multiple myeloma cell lines against the NCATS MIPE library collection: KMS12PE_JCRB cell viability assay (AID 1918972); note: nearly all actives have a fitted effect of over 30% in size;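 for viability: 100% = DMSO only wells and 0% = wells with media alone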
# condition_notes: KMS12PE myeloma viability, CellTiter-Glo ATP, 48 h; series mostly up to 45.8 µM
Inconclusive results are not listed. Calls of active or inactive are those of the source. Calls follow the shape of the dose curve; as a rule, active = well fitted cell-killing curve with a large enough effect; inconclusive = small, poorly fitted or top-dose-only effect, or effect the other way; inactive = no such curve, though single readings can be large or run the other way.
Labels: 1 for active, 0 for inactive

{"molecule": "COC(=O)C1=C(C)NC(C)=C(C(=O)OCCCN2CCC(c3ccccc3)(c3ccccc3)CC2)C1c1cccc([N+](=O)[O-])c1 (stereo not given)", "assigned_label": 0}
{"molecule": "COc1ccccc1N1CCN(CCN(C(=O)C2CCCCC2)c2ccccn2)CC1", "assigned_label": 1}
{"molecule": "Cn1c(NCCN(CCO)CCCc2ccc([N+](=O)[O-])cc2)cc(=O)n(C)c1=O", "assigned_label": 1}
{"molecule": "Cc1ccc(Nc2nccc(N(C)c3ccc4c(C)n(C)nc4c3)n2)cc1S(N)(=O)=O", "assigned_label": 1}
{"molecule": "O=C(OC1C[C@H]2CC[C@@H](C1)[N+]21CCCC1)C(O)(c1ccccc1)c1ccccc1 (stereo not given in full)", "assigned_label": 0}
{"molecule": "C[Se]CCC(N)C(=O)O (stereo not given)", "assigned_label": 0}
{"molecule": "CC1(C)CCC(C)(C)c2cc(NC(=O)c3ccc(C(=O)O)cc3)ccc21", "assigned_label": 1}
{"molecule": "Cc1cccc(-c2[nH]ncc2-c2ccc3ncccc3n2)n1", "assigned_label": 0}
{"molecule": "CNC[C@H](O)c1ccc(O)c(O)c1", "assigned_label": 0}
{"molecule": "CC1Cc2ccccc2N1NC(=O)c1ccc(Cl)c(S(N)(=O)=O)c1 (stereo not given)", "assigned_label": 0}

* * *

# assay_info: Quantitative High-Throughput drug screen in 47 multiple myeloma cell lines against the NCATS MIPE library collection: OCIMY5_PLB cell viability assay (AID 1918988); note: nearly all actives have a fitted effect of over 65% in size
# condition_notes: OCI-MY5 myeloma viability, ATP luminescence, 48 h; series mostly up to 45.8 µM
Records with an inconclusive call do not appear. The source made the active and inactive calls. Calls come from the whole dose curve; as a rule, active = well fitted cell-killing curve with a large enough effect; inconclusive = small, poorly fitted or top-dose-only effect, or effect the other way; inactive = no such curve, though single readings can be large or run the other way.
Outcomes: active, inactive

{"molecule": "O=C(CCc1ccc(O)cc1)c1c(O)cc(O)cc1O", "assigned_label": "active"}
{"molecule": "CN(C)C(=O)[C@H](O)[C@H](Cc1ccccc1)NC(=O)c1cc2cc(Cl)ccc2[nH]1", "assigned_label": "active"}
{"molecule": "O=C(c1ccccc1)c1ccc2n1CCC2C(=O)O (configuration not stated)", "assigned_label": "active"}
{"molecule": "CC(C)[N+]1(C)[C@@H]2CC[C@H]1CC(OC(=O)C(CO)c1ccccc1)C2 (some centres not stated)", "assigned_label": "inactive"}
{"molecule": "CC(=O)N1CCN(c2ccc(OC[C@H]3CO[C@](Cn4ccnc4)(c4ccc(Cl)cc4Cl)O3)cc2)CC1", "assigned_label": "active"}
{"molecule": "C[C@H](Cn1cnc2c(N)ncnc21)OCP(=O)(O)O", "assigned_label": "inactive"}
{"molecule": "CS(=O)(=O)OCCCCOS(C)(=O)=O", "assigned_label": "active"}
{"molecule": "O=c1c(O)c(-c2cc(O)c(O)c(O)c2)oc2cc(O)cc(O)c12", "assigned_label": "active"}
{"molecule": "Clc1ccc(C(Cn2ccnc2)OCc2ccc(Sc3ccccc3)cc2)c(Cl)c1 (configuration not stated)", "assigned_label": "active"}
{"molecule": "CC(C)C[C@H](NC(=O)[C@H](Cc1ccccc1)NC(=O)c1cnccn1)B(O)O", "assigned_label": "active"}
{"molecule": "C[C@@H](c1ncncc1F)[C@](O)(Cn1cncn1)c1ccc(F)cc1F", "assigned_label": "inactive"}
{"molecule": "CN(C)c1ccc(O)c2c1C[C@H]1C[C@H]3[C@H](N(C)C)C(=O)C(C(N)=O)=C(O)[C@@]3(O)C(=O)C1=C2O", "assigned_label": "active"}
{"molecule": "Cc1cc2cc3c(C)cc(=O)oc3c(C)c2o1", "assigned_label": "active"}
{"molecule": "COc1c(O)cc2c(c1O)[C@@H]1O[C@H](CO)[C@@H](O)[C@H](O)[C@H]1OC2=O", "assigned_label": "inactive"}
{"molecule": "NCCCCNCCCN", "assigned_label": "active"}
{"molecule": "Cc1cc(C2CCCCC2)n(O)c(=O)c1", "assigned_label": "active"}
{"molecule": "CCN(CCO)CCCC(C)Nc1ccnc2cc(Cl)ccc12 (configuration not stated)", "assigned_label": "inactive"}
{"molecule": "CN(C)c1ccc2nc3ccc(=[N+](C)C)cc-3sc2c1", "assigned_label": "active"}
{"molecule": "Cc1nc(Nc2ncc(C(=O)Nc3c(C)cccc3Cl)s2)cc(N2CCN(CCO)CC2)n1", "assigned_label": "active"}
{"molecule": "CCC1=C(C)CN(C(=O)NCCc2ccc(S(=O)(=O)NC(=O)NC3CCC(C)CC3)cc2)C1=O (configuration not stated)", "assigned_label": "inactive"}
{"molecule": "Cc1cccc(CN2CCN(C(c3ccccc3)c3ccc(Cl)cc3)CC2)c1 (configuration not stated)", "assigned_label": "active"}
{"molecule": "CCCc1cc(=O)[nH]c(=S)[nH]1", "assigned_label": "inactive"}
